Entries and their measured CC50 at 120 h follow.
Test: Cytotoxicity against human MT4 cells assessed as cell viability after 5 days by MTT assay
Type: cell-based

molecule	CC50 at 120 h
Cc1cc(C#N)cc(C)c1Oc1ccc([N+](=O)[O-])c(NC2CCN(Cc3ccc(S(C)(=O)=O)cc3)CC2)c1	> 234 µM
COC(=O)c1ccc(CN2CCC(Nc3cc(Oc4c(C)cc(C#N)cc4C)ccc3[N+](=O)[O-])CC2)cc1	≥ 160 µM
O=c1[nH]cnc2c1ncn2[C@H]1CC[C@@H](CO)O1 [DIDANOSINE]	> 212 µM

---

System: Human immunodeficiency virus 2
Test: Antiviral activity against HIV2 ROD infected in human MT4 cells assessed as inhibition of viral cytopathicity after 5 days by MTT assay
Format: functional, organism-based
Details: Human immunodeficiency virus 2, ISOLATE ROD, MT4, 120 h
pEC50: −log10 of the molar value.
Entries and their measured pEC50 follow.

structure-string	pEC50
Cc1cc(C)c(Oc2ccc([N+](=O)[O-])c(NC3CCN(Cc4ccccc4)CC3)c2)c(C)c1	< 4.60
Cc1cc(C)c(Oc2ccc([N+](=O)[O-])c(NC3CCN(Cc4ccncc4)CC3)c2)c(C)c1	< 4.68
COC(=O)c1ccc(CN2CCC(Nc3cc(Oc4c(C)cc(C)cc4C)ccc3[N+](=O)[O-])CC2)cc1	< 3.61
Cc1cc(C)c(Oc2ccc([N+](=O)[O-])c(NC3CCN(Cc4ccc(S(N)(=O)=O)cc4)CC3)c2)c(C)c1	< 4.66
COC(=O)c1ccc(CN2CCC(Nc3cc(Oc4c(C)cc(C#N)cc4C)ccc3[N+](=O)[O-])CC2)cc1	< 3.80
Cc1cc(C#N)cc(C)c1Oc1ccc([N+](=O)[O-])c(NC2CCN(Cc3ccc([N+](=O)[O-])cc3)CC2)c1	< 3.74
Cc1cc(C#N)cc(C)c1Oc1ccc([N+](=O)[O-])c(NC2CCN(Cc3ccc(C(=O)O)cc3)CC2)c1	< 4.52
Cc1cc(C#N)cc(C)c1Oc1ccc([N+](=O)[O-])c(NC2CCN(Cc3ccc(S(N)(=O)=O)cc3)CC2)c1	< 4.64
Cc1cc(C)c(Oc2ccc([N+](=O)[O-])c(NC3CCN(Cc4ccc([N+](=O)[O-])cc4)CC3)c2)c(C)c1	< 3.83
